Tested on: Plasmodium falciparum NF54-HGL (transmission to Anopheles stephensi)
test summary: percentage of barcode signal found in uninfected mosquitoes (transmission-blocking activity); higher = stronger blocking of transmission to mosquito, active = 80 or more
recorded conditions: 10 µM; gametocyte preincubation time 24 h; readout time post-feed 8 days
recorded endpoint: percentage of barcode signal found in uninfected mosquitoes (%)
Please reply with the bare figure in % and do not write the unit itself.

Entry `CS(=O)(=O)c1cccc(-c2cnc3[nH]cc(-c4ccc(CCC(=O)O)cc4)c3c2)c1` , tested on Plasmodium falciparum NF54-HGL (transmission to Anopheles stephensi), has a reported percentage of barcode signal found in uninfected mosquitoes of 29.9

CCc1nc2ccccc2n1CC(O)COc1cc(C)ccc1Cl (stereo not drawn) on Plasmodium falciparum NF54-HGL (transmission to Anopheles stephensi) gives percentage of barcode signal found in uninfected mosquitoes = 41.3

// compound CC(Oc1ccccc1)C(=O)Nc1nc(-c2ccccn2)cs1 (stereo not drawn) , assay Plasmodium falciparum NF54-HGL (transmission to Anopheles stephensi), percentage of barcode signal found in uninfected mosquitoes value: 84.2

# percentage of barcode signal found in uninfected mosquitoes measured on Plasmodium falciparum NF54-HGL (transmission to Anopheles stephensi) for item `CC(=O)Nc1ccc(NC(=O)c2cc(-c3cc(Cl)ccc3O)[nH]n2)cc1` = 27.4

Bench note, Plasmodium falciparum NF54-HGL (transmission to Anopheles stephensi): entry `O=C1COCc2ccc(Br)cc2N1Cc1ccc(C(F)(F)F)cc1` , its percentage of barcode signal found in uninfected mosquitoes = 22.4

Item `COc1ccc(-c2cnc3ccc(N4CCCC4)nn23)cc1OC` ; assay system Plasmodium falciparum NF54-HGL (transmission to Anopheles stephensi); percentage of barcode signal found in uninfected mosquitoes reported as 75.3

Item O=C(Nc1nc(-c2ccccn2)cs1)C1CC1c1ccccc1F (stereo not drawn) was tested on Plasmodium falciparum NF54-HGL (transmission to Anopheles stephensi); the reported percentage of barcode signal found in uninfected mosquitoes is 53.8

Summary line: CC(C)n1ncc2c(C(=O)NCC(c3cccs3)N3CCOCC3)cc(-c3ccccc3)nc21 (stereo not drawn) , Plasmodium falciparum NF54-HGL (transmission to Anopheles stephensi), reported percentage of barcode signal found in uninfected mosquitoes = 29.6

Plasmodium falciparum NF54-HGL (transmission to Anopheles stephensi) percentage of barcode signal found in uninfected mosquitoes of `COC(=O)c1c(NC(=O)c2c(F)c(F)c(F)c(F)c2F)sc2c1CCCCC2` is 13.7

// assay Plasmodium falciparum NF54-HGL (transmission to Anopheles stephensi), entry `COc1nc2ccc(Br)cc2cc1[C@@H](c1ccccc1)[C@@](O)(CCN(C)C)c1cccc2ccccc12` , percentage of barcode signal found in uninfected mosquitoes value = -3.2

Test item `O=C(NC1=NCCS1)c1sc2cc(F)ccc2c1Cl` ; Plasmodium falciparum NF54-HGL (transmission to Anopheles stephensi); reported percentage of barcode signal found in uninfected mosquitoes was 5.7

Summary line: `CCCn1c(CNc2ccccc2O)nc2ccccc21` , Plasmodium falciparum NF54-HGL (transmission to Anopheles stephensi), reported percentage of barcode signal found in uninfected mosquitoes = 34.7

// returns percentage of barcode signal found in uninfected mosquitoes for O=C1Nc2ccc(Br)cc2C12NCCc1c2[nH]c2ccccc12 (stereo not drawn) with Plasmodium falciparum NF54-HGL (transmission to Anopheles stephensi); value = 27.2

Item CS(=O)(=O)c1ccc(C(=O)N(CC2CCCO2)c2nc3ccccc3s2)cc1[N+](=O)[O-] (stereo not drawn) ; assay system Plasmodium falciparum NF54-HGL (transmission to Anopheles stephensi); percentage of barcode signal found in uninfected mosquitoes reported as 63.1

Log: Plasmodium falciparum NF54-HGL (transmission to Anopheles stephensi), compound CC(C)(C)C1CCC(CC2=C(O)C(=O)c3ccccc3C2=O)CC1 (stereo not drawn) , percentage of barcode signal found in uninfected mosquitoes = 83.7

Noted percentage of barcode signal found in uninfected mosquitoes for `CNC(=O)c1nn(C)c2c1C(C)(C)Cc1cnc(Nc3ccc(N4CCN(C)CC4)cc3)nc1-2` , tested on Plasmodium falciparum NF54-HGL (transmission to Anopheles stephensi): 64

Query `N#Cc1nc(-c2ccccc2)oc1S(=O)(=O)c1ccc(Cl)cc1` on Plasmodium falciparum NF54-HGL (transmission to Anopheles stephensi); percentage of barcode signal found in uninfected mosquitoes returned: 72.7

Summary line: `CC[C@H](CO)NCCN[C@H](CC)CO` , Plasmodium falciparum NF54-HGL (transmission to Anopheles stephensi), reported percentage of barcode signal found in uninfected mosquitoes = 24.2

Value (percentage of barcode signal found in uninfected mosquitoes, Plasmodium falciparum NF54-HGL (transmission to Anopheles stephensi)) for record CC(Oc1cccc(Cl)c1)C(=O)Nc1ccc2oc(-c3ccncc3)nc2c1 (stereo not drawn) = 47.8

For `C[C@H]1c2cccc(O)c2C(=O)C2=C(O)[C@]3(O)C(=O)C(C(N)=O)=C(O)[C@@H](N(C)C)[C@@H]3[C@@H](O)[C@@H]21` on Plasmodium falciparum NF54-HGL (transmission to Anopheles stephensi), measured percentage of barcode signal found in uninfected mosquitoes was 41.2

Noted percentage of barcode signal found in uninfected mosquitoes for `Cc1nn2c(O)c3c(nc2c1-c1ccc(F)cc1)CCCC3` , tested on Plasmodium falciparum NF54-HGL (transmission to Anopheles stephensi): 9.19

Hey, Plasmodium falciparum NF54-HGL (transmission to Anopheles stephensi) data for `N=C(N)Nc1ccc(-c2ccc(-c3ccc(N=C(N)N)c(Cl)c3)o2)cc1Cl` : percentage of barcode signal found in uninfected mosquitoes came out at 101

Form: item `Cc1ccc2[nH]c3c(NCCN(C)C)ncnc3c2c1` ; test system Plasmodium falciparum NF54-HGL (transmission to Anopheles stephensi); percentage of barcode signal found in uninfected mosquitoes: 40.6

So the reported percentage of barcode signal found in uninfected mosquitoes for `Brc1c(-c2ccc3c(c2)OCO3)nc2ncccn12` , on Plasmodium falciparum NF54-HGL (transmission to Anopheles stephensi), turned out to be 6.02

// returns percentage of barcode signal found in uninfected mosquitoes for `N#Cc1ccc(-c2ccc(OCC(N)=O)cc2)cc1` with Plasmodium falciparum NF54-HGL (transmission to Anopheles stephensi); value = -1.66

Note to self: percentage of barcode signal found in uninfected mosquitoes of CNC1C(OC2C(OC3C(O)C(O)C(NC(=N)N)C(O)C3NC(=N)N)OC(C)C2(O)C=O)OC(CO)C(O)C1O (stereo not drawn) with Plasmodium falciparum NF54-HGL (transmission to Anopheles stephensi) was 47

Entry `COc1ccc(C2=NN(C3CCCCCC3)C(=O)[C@@H]3CC=CC[C@H]23)cc1OCCCCOc1ccc(-c2nn[nH]n2)cc1` , Plasmodium falciparum NF54-HGL (transmission to Anopheles stephensi) data, percentage of barcode signal found in uninfected mosquitoes value: 63.6

Record `Cc1ccc2oc(-c3cc(NC(=O)Cc4ccccc4)ccc3Cl)nc2c1` / Plasmodium falciparum NF54-HGL (transmission to Anopheles stephensi), percentage of barcode signal found in uninfected mosquitoes recorded as 24

Noted percentage of barcode signal found in uninfected mosquitoes for `CC(C)(C)OC(=O)N1CCC(Cn2nc(-c3cnc4ccccc4c3)c3c(N)ncnc32)CC1` , tested on Plasmodium falciparum NF54-HGL (transmission to Anopheles stephensi): 24.4

Considering `Cc1cc2nc(NC(=O)C(C)(C)C)nc(Cl)c2n1Cc1ccc(Cl)cc1` , its percentage of barcode signal found in uninfected mosquitoes with Plasmodium falciparum NF54-HGL (transmission to Anopheles stephensi) was recorded as 79.6

Observed percentage of barcode signal found in uninfected mosquitoes, Plasmodium falciparum NF54-HGL (transmission to Anopheles stephensi), `C[C@]1(O)C[C@@H](c2nc(-c3ccc4ccc(-c5ccccc5)nc4c3)c3c(N)nccn32)C1` : 80.6

Tested system Plasmodium falciparum NF54-HGL (transmission to Anopheles stephensi); percentage of barcode signal found in uninfected mosquitoes recorded for `Cc1nc(-c2ccccn2)nc(NCCc2ccc(S(C)(=O)=O)cc2)c1Cl` was 67

Value (percentage of barcode signal found in uninfected mosquitoes, Plasmodium falciparum NF54-HGL (transmission to Anopheles stephensi)) for record `CC(=O)NC[C@@H]1CN(c2ccc(N3CCOCC3)c(F)c2)C(=O)O1` = 4.01

Entry `CCOc1ccccc1C(=O)Nc1cccc(-c2nc3ncccn3c2C)c1` , Plasmodium falciparum NF54-HGL (transmission to Anopheles stephensi) data, percentage of barcode signal found in uninfected mosquitoes value: 78.8

For the compound `N#Cc1ccc(-c2cnc(N)c(-c3ccc(C(N)=O)cc3)n2)cc1` , the measured percentage of barcode signal found in uninfected mosquitoes on Plasmodium falciparum NF54-HGL (transmission to Anopheles stephensi) was 69.6

Measured percentage of barcode signal found in uninfected mosquitoes for this entry COC(=O)C1=C(C)NC(C)=C(C(=O)OC(C)C)C1c1cccc2nonc12 (stereo not drawn) on Plasmodium falciparum NF54-HGL (transmission to Anopheles stephensi): 57.4

Form field, percentage of barcode signal found in uninfected mosquitoes with Plasmodium falciparum NF54-HGL (transmission to Anopheles stephensi), item `CS(=O)(=O)c1ccccc1C(=O)N(Cc1ccccc1)c1ccccc1` : 5.09

Kindly note: Plasmodium falciparum NF54-HGL (transmission to Anopheles stephensi), `Nc1ncnc2c1ncn2[C@@H]1O[C@H](COS(=O)(=O)NC(=O)c2ccccc2O)[C@@H](O)[C@H]1O` , percentage of barcode signal found in uninfected mosquitoes value reported: -0.124
